Recorded values, source paper PMC12439581.

# Target desc: biotinylated α-bungarotoxin from Bungarus multicinctus (Bungarus multicinctus, UniProt P60615)
# Sequence (P60615 22-95): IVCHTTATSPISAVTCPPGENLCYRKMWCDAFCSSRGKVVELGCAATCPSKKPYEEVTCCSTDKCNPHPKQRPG
# Assay text: BLI
# Measurement setup: both partners purified
Reported metric: binding result

Binder	Reported metric	Endpoint result
A04 Fab (Fab, V domains shown) VH: QVQLVQSGAEVKKPGSSVKVSCKASGGTFSSYAISWVRQAPGQGLEWMGGIIPIFGTANYAQKFQGRVTITADESTSTAYMELRSLRSDDTAVYYCARDNLGYCSGGSCYSDYYYYYMDVWGQGTLVTVSS VL: SYELTQPPSMSVAPGQTARITCGGDYIGGESVHWYQQKPGRAPVAVVYDDTHRPSGIPERFSGANSGNTATLTISKVEAGDEADYYCQVWDVSSDHVVFGGGTKLTVL	binding result	binds
